Target: sRNase A (Bos taurus)
Construct: purchased Sigma-Aldrich
Sequence (P61823 27-150): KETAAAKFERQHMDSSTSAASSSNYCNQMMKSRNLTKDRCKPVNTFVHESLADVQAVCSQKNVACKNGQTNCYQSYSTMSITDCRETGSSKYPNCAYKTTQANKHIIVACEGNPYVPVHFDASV
Assay: Assay for disulfide-bond isomerization activity: unscrambling of sRNase A to give native RNase A
Type: biochemical, bovine
Conditions: native RNase A from sRNase A; 1 mM catalyst, 30° C., 50 mM Tris-HCl pH 7.6, GSH 1.0 mM, GSSG 0.2 mM, after 5 h
From the text: FIGS. 4A and 4B are graphs illustrating catalysis of disulfide-bond isomerization by PDI and PDI mimics 1-7. […] Enzymatic catalysis provides an extremely sensitive measure of native protein structure. […] The isomerization reaction was monitored by measuring the gain of catalytic activity. […]
measured.parameter: Folding yield (%)
Reply numerically in %, unit not repeated.

Qu. Can you share its Folding yield (%)? I mean this compound: CC(=O)N(CCNC(=O)CS)CCNC(=O)CS
Ans. 45

---

experiment: Determination of thiol pKa values (A238 vs pH); assay type: physicochemical; conditions: potassium phosphate buffers of varied pH, lower of two thiol pKa values; absorbance at 238 nm, 0.10 M potassium phosphate buffers; read-out: thiol pKa (first value)
measured.parameter: pKa
The answer should be written as a number, with no unit following it.

Qu. Which pKa is reported for this molecule? CCCCCC(=O)N(CCNC(=O)CS)CCNC(=O)CS
Ans. 8.1

Qu. I am curious: what pKa value has been reported for CCc1ccc(C(=O)N(CCNC(=O)CS)CCNC(=O)CS)cc1 ?
Ans. 8.1

Kindly review the next molecule as well.
Qu. Entry O=C(CS)NCCNCCNC(=O)CS has what pKa?
Ans. 8

---

biological target: sRNase A (Bos taurus); construct: purchased Sigma-Aldrich; experiment: Assay for disulfide-bond isomerization activity: unscrambling of sRNase A to give native RNase A; type: biochemical, bovine; settings: native RNase A from sRNase A; 1 mM catalyst, 30° C., 50 mM Tris-HCl pH 7.6, GSH 1.0 mM, GSSG 0.2 mM, after 5 h
Here, each record is paired with measured Folding yield (%) data.

Qu. Any idea what its Folding yield (%) is? The compound is CCCC(=O)N(CCNC(=O)CS)CCNC(=O)CS [Dithiol 4]
Ans. 54 ± 4%

Qu. Look at this compound and give its reported Folding yield (%). O=C(CS)N[C@@H]1CCCC[C@H]1NC(=O)CS (racemic) [Dithiol 1, reference compound]
Ans. 42 ± 2%

Qu. # input compound: CCCCCC(=O)N(CCNC(=O)CS)CCNC(=O)CS [Dithiol 5] ; wanted: its Folding yield (%)
Ans. 57 ± 1%

Qu. # Folding yield (%) lookup, item O=C(CS)NCCN(CCNC(=O)CS)C(=O)c1ccccc1 [Dithiol 6]
Ans. 60 ± 2%

Qu. Need Folding yield (%), item O=C(CS)NCCNCCNC(=O)CS [Dithiol 2]
Ans. 50 ± 2%

***
Qu. For the compound CCc1ccc(C(=O)N(CCNC(=O)CS)CCNC(=O)CS)cc1 [Dithiol 7] , what Folding yield (%) is on record?
Ans. 66 ± 2%

Source listed as patent US9630916B2.
